target: JAK3 (Homo sapiens (Human)); assay: Jak Biochemical HTRF Assay (JAK3); details: recombinant GST-tagged catalytic domain, [ATP] 2.9 μM
Sequence (P52333 822-1111): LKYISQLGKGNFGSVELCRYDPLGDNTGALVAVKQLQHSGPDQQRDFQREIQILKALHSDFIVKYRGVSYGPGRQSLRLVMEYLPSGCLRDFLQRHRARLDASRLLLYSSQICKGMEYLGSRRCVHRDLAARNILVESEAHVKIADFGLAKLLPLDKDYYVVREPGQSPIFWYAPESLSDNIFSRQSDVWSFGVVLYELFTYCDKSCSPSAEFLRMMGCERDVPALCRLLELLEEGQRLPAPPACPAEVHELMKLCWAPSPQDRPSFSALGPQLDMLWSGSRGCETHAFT
measurementName: IC50 (nM)
# value in nM; strip the unit string

Here are 10 molecules together with their reported answers.
                            molecularstring               measuredtarget  measurementname  recordedmeasurement
0  C=C(C)C(=O)Nc1cccc(-c2ncnc3[nH]cc(-c4cccnc4)c23)c1  JAK3 (Homo sapiens (Human))             IC50                  9.7
1  C=C(COC)C(=O)Nc1cccc(-c2ncnc3[nH]cc(C(=O)OCC)c23)c1  JAK3 (Homo sapiens (Human))             IC50                0.025
2  CCOC(=O)c1c[nH]c2ncnc(-c3cccc(OCc4ccccc4)c3)c12  JAK3 (Homo sapiens (Human))             IC50                  3.3
3  CC#CC(=O)Nc1cccc(-c2ncnc3[nH]cc(C(=O)OCC)c23)c1  JAK3 (Homo sapiens (Human))             IC50                0.072
4  CCOC(=O)c1c[nH]c2ncnc(-c3ccc(N4CCS(=O)(=O)CC4)cc3)c12  JAK3 (Homo sapiens (Human))             IC50                  6.8
5  CCOC(=O)c1c[nH]c2ncnc(-c3cccc(NC(=O)/C=C(/C)C(F)(F)F)c3)c12  JAK3 (Homo sapiens (Human))             IC50                  1.9
6  C=C(C)C(=O)Nc1cc(-c2ncnc3[nH]cc(C(=O)OCC)c23)ccc1C  JAK3 (Homo sapiens (Human))             IC50                 0.15
7  C=C(C)C(=O)Nc1cc(F)cc(-c2ncnc3[nH]cc(C(=O)OCC)c23)c1  JAK3 (Homo sapiens (Human))             IC50                 0.05
8  CCOC(=O)c1c[nH]c2ncnc(-c3ccc4ccccc4c3)c12  JAK3 (Homo sapiens (Human))             IC50                  8.8
9  C=C(C)C(=O)Nc1cccc(-c2ncnc3[nH]cc(-c4cccc(C)c4)c23)c1  JAK3 (Homo sapiens (Human))             IC50                 0.17

Request body: readout IC50, system JAK3 (Homo sapiens (Human)), query C=C(C)C(=O)Nc1cc(-c2ncnc3[nH]cc(C(=O)OCC)c23)ccc1Cl . Return the value.
0.013

Also check C=CC(=O)N1CCc2ccc(-c3ncnc4[nH]cc(C(=O)OCC)c34)cc21
0.081

What do we get for C=CC(=O)Nc1cccc(-c2ncnc3[nH]cc(-c4ccccc4)c23)c1 ?
0.016

How about this molecule: CCOC(=O)c1c[nH]c2ncnc(C3=CCCCC3)c12
6

# repeat for C=C(C)C(=O)Nc1cccc(-c2ncnc3[nH]cc(-c4cccc(F)c4)c23)c1
0.59

Param item: COc1cccc(-c2c[nH]c3ncnc(-c4ccccc4)c23)c1
3.1

Follow-up item: CCOC(=O)c1c[nH]c2ncnc(-c3ccc4[nH]ncc4c3)c12
6.5
